- method: chemical genetic growth profiling, strain panel (AID 1159580);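 also: tested at 20 µM; growth read once vehicle control cultures reached saturation at 30 °C; 1 = growth at the plate median or of vehicle wells; lower values mean less growth of the strain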
- experimental.context: S. cerevisiae deletion strains, growth OD, locus YNL222W, strain SSU72, stronger effect = lower value
The whole screen tested about 5,500 compounds, of which about 2,000 (36%) were called active. Roughly 18% stayed inconclusive and do not appear here. This is one part of the list.
The entries below are paired with their reported normalized growth.
Could you keep your reply to the number by itself?

**Q:** Tell me its normalized growth given Cc1nc(-c2ccc(C(F)(F)F)cn2)[nH]c(=O)c1Cl as the entry.
**A:** 0.905

**Q:** Tell me its normalized growth given CCC(C)Cn1c(Sc2ncc([N+](=O)[O-])s2)n[nH]c1=O (stereo not given) as the entry.
**A:** 0.865

**Q:** Tell me its normalized growth given O=C1Nc2ccccc2/C1=N/N=C\c1cc(Br)cc(Br)c1O as the entry.
**A:** 0.96

**Q:** Tell me its normalized growth given COc1ccc(C2CC(c3ccccc3)=Nc3ccccc3S2)cc1OC (stereo not given) as the entry.
**A:** 0.968

**Q:** Tell me its normalized growth given O=C(CSCc1nc(-c2ccc(Cl)cc2)cs1)N/N=C\c1cccs1 as the entry.
**A:** 0.974

**Q:** Tell me its normalized growth given O=C1Nc2ccccc2/C1=N/N=C\c1ccccc1Cl as the entry.
**A:** 0.979

**Q:** Tell me its normalized growth given CC(O)(CNCc1ccc(Cl)cc1)CSc1ccccc1Cl (stereo not given) as the entry.
**A:** 0.985

**Q:** Tell me its normalized growth given CC(C)(C)c1csc(NC(=O)c2ccc(Cl)cc2Cl)n1 as the entry.
**A:** 0.961
